B1: BRF1 (parent)
chain: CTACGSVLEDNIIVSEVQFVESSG

# Variants of: B1
# protocol: protein stability index of a GFP-peptide fusion (GPS, HEK-293T) (PSI 1-6); higher = more stable;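 further: lentivirally expressed fusions sorted by FACS into six bins by GFP to DsRed ratio, PSI derived from sequencing read proportions per bin multiplied by bin number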
# applied_conditions: c terminus: a fixed tail appended
Some variants, each annotated with its measured protein stability index.

# item_sequence, protein stability index
records = [
    ("CTACGSVLEDNIIVSLVQFVESSG", 3.15),
    ("ITACGSVLEDNIIVSEVQFVESSG", 1.46),
    ("CTACGSVLEDPIIVSEVQFVESSG", 2.91),
    ("CTACGSVLEDNIIVSEVQFVESSN", 3.01),
    ("CTACGSFLEDNIIVSEVQFVESSG", 2.33),
    ("CEACGSVLEDNIIVSEVQFVESSG", 3.25),
    ("CTACGKVLEDNIIVSEVQFVESSG", 3.06),
    ("CTACGTVLEDNIIVSEVQFVESSG", 3.38),
    ("CTACPSVLEDNIIVSEVQFVESSG", 3.67),
    ("CTASGSVLEDNIIVSEVQFVESSG", 3.5),
    ("CTACGSVWEDNIIVSEVQFVESSG", 1.89),
    ("CTACGSVLEDNIIVSEVQAVESSG", 5.26),
    ("CTACGQVLEDNIIVSEVQFVESSG", 2.44),
    ("CTACGSVLEDNIIVSEVQSVESSG", 4.59),
    ("CTACGSVLEDNIIVSEVSFVESSG", 2.44),
    ("CTACQSVLEDNIIVSEVQFVESSG", 2.92),
    ("CTACGSVLEDNCIVSEVQFVESSG", 3.53),
    ("CTACGSTLEDNIIVSEVQFVESSG", 3.86),
    ("CTACGSVLEDNIIVDEVQFVESSG", 4.08),
    ("CTACGSVLEDNIIVSKVQFVESSG", 3.42),
    ("CTACGSVLEDNIIASEVQFVESSG", 3.63),
    ("CTACGSVLGDNIIVSEVQFVESSG", 2.16),
    ("CTACGSVLEDFIIVSEVQFVESSG", 1.89),
    ("CTACGSVLEDNIIRSEVQFVESSG", 3.89),
    ("CTACGSVLEYNIIVSEVQFVESSG", 2.24),
    ("CTDCGSVLEDNIIVSEVQFVESSG", 2.28),
    ("CTACGSVLEDNIIVSEVQFVFSSG", 1.87),
    ("CAACGSVLEDNIIVSEVQFVESSG", 3.64),
    ("CTACGSVLEDNIIVSEVQFVESSA", 3.67),
    ("CTACGSVLEDNIIVSEVQYVESSG", 3.49),
    ("CTACGSVLEDNIIVSEVQFIESSG", 3.11),
    ("CTACGSVLEDNKIVSEVQFVESSG", 4.16),
    ("CTACGDVLEDNIIVSEVQFVESSG", 2.94),
    ("CTACTSVLEDNIIVSEVQFVESSG", 2.91),
    ("CTACGSVFEDNIIVSEVQFVESSG", 2.37),
    ("CQACGSVLEDNIIVSEVQFVESSG", 3.48),
    ("CTACGSVLEDNIIVKEVQFVESSG", 3.19),
    ("CTACGSVLEDNIHVSEVQFVESSG", 3.84),
    ("CTACGSVLEDNIIVYEVQFVESSG", 2.06),
    ("CTACGSVLEDNIIVSEVQFVESSE", 3.58),
    ("CTACGSVLEDNIIVSEPQFVESSG", 3.71),
]
